tested on: Streptococcus pyogenes; assay: Antibacterial activity against Streptococcus pyogenes harboring mef(A) gene after overnight incubation by agar dilution method; format: functional
valueType: MIC90 (µg/mL)
// return numeric value only (unit: µg/mL, not printed)

Some compounds with known MIC90 results, for comparison:
Request: Answer with reported MIC90 of CC1(C)S[C@@H]2[C@H](NC(=O)Cc3ccccc3)C(=O)N2[C@H]1C(=O)O [PENICILLIN G]
Response: 0.03

Request: Answer with reported MIC90 of CC[C@H]1OC(=O)[C@H](C)[C@@H](O[C@H]2C[C@@](C)(OC)[C@@H](O)[C@H](C)O2)[C@H](C)[C@@H](O[C@@H]2O[C@H](C)C[C@H](N(C)C)[C@H]2O)[C@](C)(O)C[C@@H](C)CN(C)[C@H](C)[C@@H](O)[C@]1(C)O [AZITHROMYCIN]
Response: 8

Request: Answer with reported MIC90 of CC[C@H]1OC(=O)[C@H](C)C(=O)[C@H](C)[C@@H](O[C@@H]2O[C@H](C)C[C@H](N(C)C)[C@H]2O)[C@](C)(OC)C[C@@H](C)C(=O)[C@H](C)[C@H]2N(CCCCn3cnc(-c4cccnc4)c3)C(=O)O[C@]12C [TELITHROMYCIN]
Response: 1

Request: Answer with reported MIC90 of CC[C@H]1OC(=O)[C@H](C)[C@@H](O[C@H]2C[C@@](C)(OC)[C@@H](O)[C@H](C)O2)[C@H](C)[C@@H](O[C@@H]2O[C@H](C)C[C@H](N(C)C)[C@H]2O)[C@](C)(OC)C[C@@H](C)C(=O)[C@H](C)[C@@H](O)[C@]1(C)O [CLARITHROMYCIN]
Response: 8

Continuing:
Request: Answer with reported MIC90 of C[C@H]1COc2c(N3CCN(C)CC3)c(F)cc3c(=O)c(C(=O)O)cn1c23.C[C@H]1COc2c(N3CCN(C)CC3)c(F)cc3c(=O)c(C(=O)O)cn1c23.O [LEVOFLOXACIN]
Response: 1

Request: Answer with reported MIC90 of CCC[C@@H]1C[C@@H](C(=O)N[C@@H]([C@H]2O[C@H](SC)[C@H](O)[C@@H](O)[C@H]2O)[C@H](C)Cl)N(C)C1 [CLINDAMYCIN]
Response: 0.125

Request: Answer with reported MIC90 of CC[C@H]1OC(=O)[C@H](C)[C@@H](O[C@H]2C[C@@](C)(OC)[C@@H](O)[C@H](C)O2)[C@H](C)[C@@H](O[C@@H]2O[C@H](C)C[C@H](N(C)C)[C@H]2O)[C@](C)(O)C[C@@H](C)C(=O)[C@H](C)[C@@H](O)[C@]1(C)O [ERYTHROMYCIN]
Response: 32
